Biological target: ORP4L (Homo sapiens)
Construct: about 116 kDa on SDS-PAGE, dimer by cross-linking; residues S762SPSSPSS769 in ORD
Assay: specific radioligand binding in solution, Scatchard
parameter_measured: Kd (nM)

(P) C[C@H](CCCC(C)(C)O)[C@H]1CC[C@H]2[C@@H]3CC=C4C[C@@H](O)CC[C@]4(C)[C@H]3CC[C@]12C [25OH]
(Q) CC(C)CCC[C@@H](C)[C@H]1CC[C@H]2[C@@H]3CC=C4C[C@@H](O)CC[C@]4(C)[C@H]3CC[C@]12C
Exam item: Form: Entry with minimum Kd (choose one): P / Q I would appreciate it if you answered with the label of your choice.
Marked response: P

====

Molecular target: ORP4L (Homo sapiens, UniProt Q969R2, S762A/S763A/S766A/S768A)
Construct: about 116 kDa on SDS-PAGE, dimer by cross-linking; residues S762SPSSPSS769 in ORD
Sequence (Q969R2 whole entry S762A/S763A/S766A/S768A): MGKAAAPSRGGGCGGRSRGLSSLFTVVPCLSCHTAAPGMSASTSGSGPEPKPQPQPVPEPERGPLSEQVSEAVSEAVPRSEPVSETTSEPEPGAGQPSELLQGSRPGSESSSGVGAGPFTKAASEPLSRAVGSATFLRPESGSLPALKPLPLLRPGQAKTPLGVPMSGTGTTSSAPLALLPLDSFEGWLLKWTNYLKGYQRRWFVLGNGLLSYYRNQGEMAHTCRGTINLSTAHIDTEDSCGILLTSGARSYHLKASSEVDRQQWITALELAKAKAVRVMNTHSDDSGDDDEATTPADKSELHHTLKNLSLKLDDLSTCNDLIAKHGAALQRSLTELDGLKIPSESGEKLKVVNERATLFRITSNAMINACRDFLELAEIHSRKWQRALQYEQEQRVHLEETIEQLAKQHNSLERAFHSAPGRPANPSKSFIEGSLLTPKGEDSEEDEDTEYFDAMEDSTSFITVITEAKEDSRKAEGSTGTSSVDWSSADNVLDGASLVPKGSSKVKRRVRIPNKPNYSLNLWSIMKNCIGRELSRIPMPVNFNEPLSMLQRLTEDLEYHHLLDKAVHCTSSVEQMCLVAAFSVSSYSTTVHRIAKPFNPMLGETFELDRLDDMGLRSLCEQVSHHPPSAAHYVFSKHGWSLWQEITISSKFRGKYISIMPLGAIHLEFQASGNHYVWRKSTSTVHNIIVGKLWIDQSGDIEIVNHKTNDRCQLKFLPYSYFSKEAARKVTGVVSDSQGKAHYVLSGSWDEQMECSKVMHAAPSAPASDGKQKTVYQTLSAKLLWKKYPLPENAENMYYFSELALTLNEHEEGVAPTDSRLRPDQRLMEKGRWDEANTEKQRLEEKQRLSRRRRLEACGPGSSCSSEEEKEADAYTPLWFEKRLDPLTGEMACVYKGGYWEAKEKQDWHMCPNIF
Test: specific radioligand binding in solution, Scatchard
parameter_measured: Kd (nM)

(1) CC(C)CCC[C@@H](C)[C@H]1CC[C@H]2[C@@H]3CC=C4C[C@@H](O)CC[C@]4(C)[C@H]3CC[C@]12C
(2) C[C@H](CCCC(C)(C)O)[C@H]1CC[C@H]2[C@@H]3CC=C4C[C@@H](O)CC[C@]4(C)[C@H]3CC[C@]12C [25OH]
Exam item: Which record would sort first by descending Kd, 1 or 2 ? I would appreciate it if you answered with the label of your choice.
Marked response: 1
(1: 255 nM, 2: 62 nM)

====

Target: ORP4L (Homo sapiens, UniProt Q969R2, S762D/S763D/S766D/S768D)
Construct: about 116 kDa on SDS-PAGE, dimer by cross-linking; residues S762SPSSPSS769 in ORD
Sequence (Q969R2 whole entry S762D/S763D/S766D/S768D): as the sequence (Q969R2 whole entry S762A/S763A/S766A/S768A) above, with A762D, A763D, A766D, A768D counted along it
Test: specific radioligand binding in solution, Scatchard
parameter_measured: Kd (nM)

(P) CC(C)CCC[C@@H](C)[C@H]1CC[C@H]2[C@@H]3CC=C4C[C@@H](O)CC[C@]4(C)[C@H]3CC[C@]12C
(Q) C[C@H](CCCC(C)(C)O)[C@H]1CC[C@H]2[C@@H]3CC=C4C[C@@H](O)CC[C@]4(C)[C@H]3CC[C@]12C [25OH]
Exam item: Which record would sort first by descending Kd, P or Q ? I would appreciate it if you answered with the label of your choice.
Marked response: P

All values here come from paper PMC6440634.
